Numbers sourced from patent US12653900B2.

System: HT29
Assay: cells
Format: cell-based
Details: HT29, 72 hours treatment, SRB; read-out: LC50 (the source's name)
ASSAY_METRIC: CC50

Field: CC50 (HT29). Entry: COc1c(C)cc2c(c1O)C1C3C4SCC5(NC(COC(C)=O)Cc6c5[nH]c5ccccc65)C(=O)OCC(c5c6c(c(C)c(OC(C)=O)c54)OCO6)N3C(C#N)C(C2)N1C (stereo not shown) [3a-S]
> 120 nM

* * *

System: MDA-MB-231
Test: cells
Assay type: cell-based
Conditions: MDA-MB-231, 72 hours treatment, SRB; read-out: LC50 (the source's name)
ASSAY_METRIC: CC50 (nM)
Reply with just the number (in nM).

// query CC50 value for entry COc1c(C)cc2c(c1O)C1C3C4SCC5(NC(COC(C)=O)Cc6c5[nH]c5ccccc65)C(=O)OCC(c5c6c(c(C)c(OC(C)=O)c54)OCO6)N3C(C#N)C(C2)N1C (stereo not shown) [3a-S]
4.9
